These measurements were taken from patent US20210309735A1.

# measured_target: T1, human IL-17A (human, UniProt Q16552 20-155, limits assumed)
# T1 construct: Bought from R&D Systems; also called IL-17 antigen (human IL17A)
# T1 sequence (looked up): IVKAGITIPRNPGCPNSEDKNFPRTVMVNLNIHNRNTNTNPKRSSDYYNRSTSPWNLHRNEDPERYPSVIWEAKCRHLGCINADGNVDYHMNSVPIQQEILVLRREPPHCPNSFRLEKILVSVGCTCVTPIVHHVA
# experimental_details: blocking ELISA, IL-17RA coated; antibody 1 ug/ml pre-mixed with human IL-17A 0.1 ug/ml; bound IL-17A detected
In this section, each of the binders is paired with its reported Blocking %.
Reply with just the number (in %).

- binder: "PP10766 (antibody, human IgG4 S228P, kappa, V domains shown, Humanized, human IgG4/kappa; also called VH6667/VL6665) VH: EVQLVESGGGVVQPGRSLRLSCAASGFTFSTYGMSWVRQAPGKGLELVAIINHNGGSTFYPDSVKGRFTISRDNSKNTLYLQMNSLRAEDTAVYYCARDPRHDGYFFDYWGQGTLVTVSS VL: DIQMTQSPSSLSASVGDRVTITCQASEDIYDRLAWYQQKPGKAPKLLISGATSLETGVPSRFSGSGSGTDYTFTISSLQPEDIATYYCQQYWSVPWTFGGGTKVEIKR"
  unit_string: "%"
  Blocking %: 94.9
- binder: "PP10763 (antibody, human IgG4 S228P, kappa, V domains shown, Humanized, human IgG4/kappa; also called VH6666/VL6665) VH: EVQLVESGGGLVQPGGSLRLSCAASGFTFSTYGMSWVRQAPGKGLELVAIINHNGGSTFYPDSVKGRFTVSRDNSKNTLYLQMNSLRAEDTAVYYCARDPRHDGYFFDYWGQGTLVTVSS VL: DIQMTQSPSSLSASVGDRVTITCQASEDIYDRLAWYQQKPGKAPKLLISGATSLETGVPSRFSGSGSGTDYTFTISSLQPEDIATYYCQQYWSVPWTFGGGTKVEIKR"
  unit_string: "%"
  Blocking %: 90.9

Next:
Ask: Supply recorded Blocking % for PP10764 (antibody, human IgG4 S228P, kappa, V domains shown, Humanized, human IgG4/kappa; also called VH6666/VL6666) VH: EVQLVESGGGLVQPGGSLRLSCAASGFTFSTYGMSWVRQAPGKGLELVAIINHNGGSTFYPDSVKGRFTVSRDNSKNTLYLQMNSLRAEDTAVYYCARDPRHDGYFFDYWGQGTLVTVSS VL: DIQMTQSPSSLSASVGDRVTITCQASEDIYDRLAWYQQKPGKAPKLLISGATSLETGVPSRFSGSGSGKDYTFTISSLQPEDIATYYCQQYWSVPWTFGGGTKVEIKR here.
Result: 96.5
